Conditions: in isopropanol, 313.15 K
measured parameter: solubility (mole fraction)

structure_notation=COC(=O)c1c(Cl)nn(C)c1S(=O)(=O)NC(=O)Nc1nc(OC)cc(OC)n1 result_number=5.71e-06

* * *

Conditions: in DMF, 283.15 K
measured parameter: solubility (mole fraction)

structure_notation=COC(=O)c1c(Cl)nn(C)c1S(=O)(=O)NC(=O)Nc1nc(OC)cc(OC)n1 measured_parameter="solubility (mole fraction)" result_number=0.000905

* * *

Conditions: in water, 283.15 K
measured parameter: solubility (mole fraction)

structure_notation=COC(=O)c1c(Cl)nn(C)c1S(=O)(=O)NC(=O)Nc1nc(OC)cc(OC)n1 measured_parameter="solubility (mole fraction)" result_number=3.38e-07

* * *

Details: in DMF, 313.15 K
measured parameter: solubility (mole fraction)

structure_notation=COC(=O)c1c(Cl)nn(C)c1S(=O)(=O)NC(=O)Nc1nc(OC)cc(OC)n1 result=0.00204

* * *

Settings: in DMF, 318.15 K
measured parameter: solubility (mole fraction)

structure_notation=COC(=O)c1c(Cl)nn(C)c1S(=O)(=O)NC(=O)Nc1nc(OC)cc(OC)n1 result_number=0.00227

* * *

Settings: in ethanol, 293.15 K
measured parameter: solubility (mole fraction)

structure_notation=COC(=O)c1c(Cl)nn(C)c1S(=O)(=O)NC(=O)Nc1nc(OC)cc(OC)n1 result_number=5.64e-05

* * *

Details: in water, 303.15 K
measured parameter: solubility (mole fraction)

structure_notation=COC(=O)c1c(Cl)nn(C)c1S(=O)(=O)NC(=O)Nc1nc(OC)cc(OC)n1 result_number=3.96e-07

* * *

Details: in DMF, 308.15 K
measured parameter: solubility (mole fraction)

structure_notation=COC(=O)c1c(Cl)nn(C)c1S(=O)(=O)NC(=O)Nc1nc(OC)cc(OC)n1 result_number=0.00182

* * *

Settings: in isopropanol, 323.15 K
measured parameter: solubility (mole fraction)

structure_notation=COC(=O)c1c(Cl)nn(C)c1S(=O)(=O)NC(=O)Nc1nc(OC)cc(OC)n1 result_number=6.64e-06

* * *

Conditions: in water, 293.15 K
measured parameter: solubility (mole fraction)

structure_notation=COC(=O)c1c(Cl)nn(C)c1S(=O)(=O)NC(=O)Nc1nc(OC)cc(OC)n1 measured_parameter="solubility (mole fraction)" result_number=3.66e-07

* * *

Details: in ethanol, 318.15 K
measured parameter: solubility (mole fraction)

structure_notation=COC(=O)c1c(Cl)nn(C)c1S(=O)(=O)NC(=O)Nc1nc(OC)cc(OC)n1 result_number=0.000103

* * *

Conditions: in isopropanol, 278.15 K
measured parameter: solubility (mole fraction)

structure_notation=COC(=O)c1c(Cl)nn(C)c1S(=O)(=O)NC(=O)Nc1nc(OC)cc(OC)n1 measured_parameter="solubility (mole fraction)" result_number=3.3e-06

* * *

Conditions: in water, 298.15 K
measured parameter: solubility (mole fraction)

structure_notation=COC(=O)c1c(Cl)nn(C)c1S(=O)(=O)NC(=O)Nc1nc(OC)cc(OC)n1 result_number=3.81e-07

* * *

Settings: in ethanol, 278.15 K
measured parameter: solubility (mole fraction)

structure_notation=COC(=O)c1c(Cl)nn(C)c1S(=O)(=O)NC(=O)Nc1nc(OC)cc(OC)n1 result_number=3.56e-05

* * *

Conditions: in ethanol, 303.15 K
measured parameter: solubility (mole fraction)

structure_notation=COC(=O)c1c(Cl)nn(C)c1S(=O)(=O)NC(=O)Nc1nc(OC)cc(OC)n1 measured_parameter="solubility (mole fraction)" result_number=7.29e-05

* * *

Details: in ethanol, 313.15 K
measured parameter: solubility (mole fraction)

structure_notation=COC(=O)c1c(Cl)nn(C)c1S(=O)(=O)NC(=O)Nc1nc(OC)cc(OC)n1 measured_parameter="solubility (mole fraction)" result_number=9.25e-05

* * *

Details: in isopropanol, 318.15 K
measured parameter: solubility (mole fraction)

structure_notation=COC(=O)c1c(Cl)nn(C)c1S(=O)(=O)NC(=O)Nc1nc(OC)cc(OC)n1 measured_parameter="solubility (mole fraction)" result_number=6.19e-06

* * *

Settings: in DMF, 303.15 K
measured parameter: solubility (mole fraction)

structure_notation=COC(=O)c1c(Cl)nn(C)c1S(=O)(=O)NC(=O)Nc1nc(OC)cc(OC)n1 measured_parameter="solubility (mole fraction)" result=0.0016

* * *

Conditions: in water, 278.15 K
measured parameter: solubility (mole fraction)

structure_notation=COC(=O)c1c(Cl)nn(C)c1S(=O)(=O)NC(=O)Nc1nc(OC)cc(OC)n1 result_number=3.24e-07

* * *

Details: in isopropanol, 303.15 K
measured parameter: solubility (mole fraction)

structure_notation=COC(=O)c1c(Cl)nn(C)c1S(=O)(=O)NC(=O)Nc1nc(OC)cc(OC)n1 result_number=4.93e-06

Provenance of the data: BigSolDB 2.1
